System: PC-3
Assay: Tested in vitro for cytotoxic activity against prostate cancer (PC3) cell line
Format: functional, Homo sapiens
ED50 values by entry
Reply numerically in mg/L, unit not repeated.

Illustrative cases are given below, each with its answer.
- COc1cccc(-c2nc(O)c3cc(N(C)C)ccc3n2)c1: 15
- COc1cccc(-c2nc(O)c3cc(OC)c(OC)cc3n2)c1: 15
- COc1cccc(-c2nc(O)c3ccccc3n2)c1OC: 20
- COc1cccc(-c2nc(O)c3cc(F)ccc3n2)c1: 20
- COc1cccc(C2NC(=O)c3cc(Cl)ccc3N2)c1 (configuration not stated): 2.5

*Q* ED50 lookup needed for `COc1cccc(-c2nc(O)c3cc(N4CCCC4)ccc3n2)c1` , thanks.
*A* 15

*Q* What ED50 value was documented for this molecule, `COc1cccc(-c2nc(O)c3cc(N4CCCCC4)ccc3n2)c1` ?
*A* 10

Data provenance: ChEMBL document CHEMBL1133524
